# System: C. albicans 10231
# Type: cell-based
# run-parameters: 10231
Where no end group is shown, it is not given here.
Items are presented alongside their recorded MIC.

// query Fill in: MIC of LKKLLKKLLKKLLKKLLKKLLKKLLKKLLKKL [LKKL (8), LKKL LKKL LKKL LKKL LKKL LKKL LKKL LKKL] is ___
// result 250 to 500 µg/mL

// query Fill in: MIC of H-LKLKLKLKLKLKLKLKLKLKLK-OH [LK (11), LK LK LK LK LK LK LK LK LK LK LK] is ___
// result 250 to 500 µg/mL

// query Fill in: MIC of LKLKLKLKLKLKLKLKLK [LK (9), LK LK LK LK LK LK LK LK LK] is ___
// result 250 to 500 µg/mL

// query Fill in: MIC of H-KFKKFKKFKKFKKFKKFKKFKKFKKFKKFK-OH [KFK (10), KFK KFK KFK KFK KFK KFK KEK KFK KFK KFK] is ___
// result 125 to 250 µg/mL
